- measured.on: T1, native human glycophorin A protein (human, UniProt P02724 20-150)
- T1 construct: mature; also called Hu-nat GPA
- T1 sequence (looked up): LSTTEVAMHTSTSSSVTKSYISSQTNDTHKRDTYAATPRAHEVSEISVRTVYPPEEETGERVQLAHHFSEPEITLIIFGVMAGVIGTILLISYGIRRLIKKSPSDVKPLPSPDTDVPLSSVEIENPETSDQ
- assay.notes: ELISA, Fab on coated native human GPA
# binding in ELISA relative to parental Fab annotations
observed.property: binding in ELISA relative to parental Fab

| binder | assay.result |
| --- | --- |
| TPP-5702, Hu6C12-24 Fab variant VL: (S24R, A26S, S49A, P54Q, F95Y) (Fab, V domains shown, Built on the parental Fab TPP-4935) VH: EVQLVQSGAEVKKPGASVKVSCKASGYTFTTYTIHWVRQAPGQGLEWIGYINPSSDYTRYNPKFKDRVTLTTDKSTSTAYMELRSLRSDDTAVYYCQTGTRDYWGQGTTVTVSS VL: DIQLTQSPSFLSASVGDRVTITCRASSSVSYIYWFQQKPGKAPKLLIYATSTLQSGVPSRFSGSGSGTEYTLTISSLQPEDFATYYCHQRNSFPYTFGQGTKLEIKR | 5.2 relative to parental Fab |
| TPP-5835, Hu6C12-24 Fab variant VL: (S24R, A26S, S49A, P54Q, F95Y); VH: (I48M, L70M) (Fab, V domains shown, Built on the parental Fab TPP-4935) VH: EVQLVQSGAEVKKPGASVKVSCKASGYTFTTYTIHWVRQAPGQGLEWMGYINPSSDYTRYNPKFKDRVTMTTDKSTSTAYMELRSLRSDDTAVYYCQTGTRDYWGQGTTVTVSS VL: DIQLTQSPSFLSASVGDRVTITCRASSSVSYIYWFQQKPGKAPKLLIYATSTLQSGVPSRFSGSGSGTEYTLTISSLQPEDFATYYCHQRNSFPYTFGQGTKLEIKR | 5.2 relative to parental Fab |
